pIC50: −log10 of the molar value.
As an illustration, consider measured pIC50 for compounds on calpain 1 (Homo sapiens (Human), UniProt P07384).
Sequence (P07384 whole entry): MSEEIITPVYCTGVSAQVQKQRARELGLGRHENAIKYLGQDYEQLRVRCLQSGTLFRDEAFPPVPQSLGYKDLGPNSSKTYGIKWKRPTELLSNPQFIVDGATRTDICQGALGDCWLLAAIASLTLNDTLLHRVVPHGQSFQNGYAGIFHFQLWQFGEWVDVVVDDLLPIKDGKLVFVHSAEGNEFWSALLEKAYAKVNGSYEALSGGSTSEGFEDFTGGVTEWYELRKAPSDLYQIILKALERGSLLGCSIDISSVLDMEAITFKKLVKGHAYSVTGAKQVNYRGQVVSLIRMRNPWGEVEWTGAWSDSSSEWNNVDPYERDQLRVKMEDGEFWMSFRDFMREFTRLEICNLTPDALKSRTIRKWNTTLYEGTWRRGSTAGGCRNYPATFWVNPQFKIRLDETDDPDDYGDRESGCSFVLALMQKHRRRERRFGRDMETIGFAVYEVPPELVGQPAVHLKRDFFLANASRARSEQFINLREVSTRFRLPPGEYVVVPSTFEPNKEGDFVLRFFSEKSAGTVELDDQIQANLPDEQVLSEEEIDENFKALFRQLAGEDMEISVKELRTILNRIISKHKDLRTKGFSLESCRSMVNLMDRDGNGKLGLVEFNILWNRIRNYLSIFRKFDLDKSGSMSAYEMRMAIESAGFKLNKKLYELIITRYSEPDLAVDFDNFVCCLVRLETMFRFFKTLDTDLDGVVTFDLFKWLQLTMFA
Sequence (P04632 whole entry partner): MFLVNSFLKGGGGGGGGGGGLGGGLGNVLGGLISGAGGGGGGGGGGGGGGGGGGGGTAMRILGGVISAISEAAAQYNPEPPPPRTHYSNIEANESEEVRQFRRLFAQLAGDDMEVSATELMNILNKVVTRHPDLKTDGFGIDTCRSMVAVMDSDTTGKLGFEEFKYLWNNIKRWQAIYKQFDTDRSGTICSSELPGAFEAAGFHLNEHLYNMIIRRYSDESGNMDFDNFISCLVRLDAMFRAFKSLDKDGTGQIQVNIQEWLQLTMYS
reported_property: pIC50

Past entries and their recorded results:
CONC(=O)C(=O)C(Cc1ccccc1)NC(=O)[C@H](CC1CC1)NC(=O)c1cccc(OC)c1 (some centres unmarked)
8.15
COc1cccc(C(=O)N[C@@H](CC2CC2)C(=O)NC(Cc2ccccc2)C(=O)C(=O)NC2CC2)c1 (some centres unmarked)
11.10

A = COc1ccccc1C(=O)N[C@@H](CC(C)C)C(=O)N[C@@H](Cc1ccccc1)C(=O)C(=O)NC1CC1 [Comp. Example 6, reference compound]
B = COc1cccc(C(=O)N[C@H](C(=O)NC(Cc2ccccc2)C(=O)C(=O)NC2CC2)C(C)C)c1 (some centres unmarked)
C = COc1ccc(C(=O)N[C@@H](CC(C)C)C(=O)N[C@@H](Cc2ccccc2)C(=O)C(=O)NC2CC2)cc1 [Comp. Example 5, reference compound]
Rank descending by pIC50. Provide the labels, sequenced as the question asks. B, A, C
